The measured values listed here are drawn from paper PMC12475083.

- Study Target: UniProt F1QCV2
- Sequence (F1QCV2 whole entry): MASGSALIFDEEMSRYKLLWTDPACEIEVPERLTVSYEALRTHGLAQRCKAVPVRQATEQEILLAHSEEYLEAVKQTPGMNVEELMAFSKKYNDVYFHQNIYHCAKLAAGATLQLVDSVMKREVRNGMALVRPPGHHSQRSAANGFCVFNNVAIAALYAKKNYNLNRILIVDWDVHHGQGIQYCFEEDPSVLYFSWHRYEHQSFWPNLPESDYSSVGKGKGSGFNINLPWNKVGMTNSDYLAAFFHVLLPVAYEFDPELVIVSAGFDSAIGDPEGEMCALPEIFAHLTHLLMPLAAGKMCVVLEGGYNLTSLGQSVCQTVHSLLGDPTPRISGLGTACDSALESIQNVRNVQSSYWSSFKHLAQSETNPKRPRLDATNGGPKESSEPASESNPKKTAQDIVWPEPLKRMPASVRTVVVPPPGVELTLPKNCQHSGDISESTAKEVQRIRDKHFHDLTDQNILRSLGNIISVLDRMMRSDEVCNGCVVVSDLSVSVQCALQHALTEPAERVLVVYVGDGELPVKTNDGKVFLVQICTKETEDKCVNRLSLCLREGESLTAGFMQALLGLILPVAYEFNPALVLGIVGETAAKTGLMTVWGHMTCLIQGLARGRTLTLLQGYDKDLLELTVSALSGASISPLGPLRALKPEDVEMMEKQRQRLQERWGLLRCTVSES
- Protocol Details: Enzymatic in vitro HDAC10 inhibition assay
- Type: biochemical, zebrafish
Each entry below lists one item and its recorded log10 of IC50 value.
Parameter value (number): base-10 log of IC50 in nM.

Solved cases (4 shown):
O=C(NO)c1ccc(CNCc2c[nH]c3ccccc23)cc1	-0.39
O=C(NO)c1ccc(N2CCN(Cc3c[nH]c4ccccc34)CC2)cc1	0.30
Cc1ccc(S(=O)(=O)n2cc(CNc3ccc(C(=O)NO)cc3)c3ccccc32)cc1	2.46
CN1CCc2c(c3ccccc3n2Cc2ccc(C(=O)NO)cc2)C1 [Tubastatin A, reference compound]	1.70

Query: Please report the recorded log10 of IC50 for O=C(NO)c1ccc(NCc2cnc3ccccc3c2)cc1 .
Result: 2.04

Query: Please report the recorded log10 of IC50 for Cc1ccc(S(=O)(=O)n2cc(CN3CCN(c4ccc(C(=O)NO)cc4)CC3)c3ccccc32)cc1 .
Result: 1.88
